Biological target: SARS-CoV-2 NSP3 Mac1 (Severe acute respiratory syndrome coronavirus 2, UniProt P0DTD1)
Format: binding
Conditions: PanDDA event map, 1 minus background density correction; crystal soaking of Mac1
Provide the reported 1-BDC (PanDDA) of each item.

As a guide, the following entries are already answered.
O=C(O)c1csc(CCNC(=O)c2cc3[nH]cnc3cc2F)n1 = 0.1
CC(=O)Nc1nc(C)c(S(=O)(=O)Nc2ccc(C)c(C#N)c2)s1 = 0.23
CC(F)(F)c1cncc(C(=O)NC(Cc2cncc(Br)c2)C(=O)O)c1 (stereo not drawn) = 0.1
O[C@H]1CCCC[C@H]1Nc1ncnc2[nH]ccc12 (relative stereo) = 0.13
O=C(Nc1ccc(C(=O)NC2c3cccc(O)c3CC2C(=O)O)c(O)c1)NC1CC1 (stereo not drawn) = 0.24
CCC(=O)Nc1nc(C)c(S(=O)(=O)Nc2cccc(C#N)c2)s1 = 0.33
CN(Cc1ccccn1)c1ncnc2[nH]c3cc(F)ccc3c12 = 0.15
O=C(O)Cc1cccc(CNC(=O)c2ncnc3ccsc23)c1 = 0.32

# next compound below
1-BDC (PanDDA) reading for CC1C(C(=O)O)CCCN1S(=O)(=O)c1c[nH]c2ncc(Cl)cc12 (stereo not drawn) : 0.09

* * *

Provide the reported DSF max dTma of each item.
Target: SARS-CoV-2 NSP3 Mac1 (Severe acute respiratory syndrome coronavirus 2)
Type: binding
Set-up: contains a conserved macrodomain enzyme (Mac1)
Settings: maximal thermal upshift

O=c1[nH]nc(C2CCCN(c3ncnc4[nH]c5cc(F)ccc5c34)C2)o1 (centres unmarked) = 0.5 ˚C
C[C@H]1CN(C(=O)c2cccc3[nH]c(=O)oc23)C[C@@H]1C(=O)O = 0.3 ˚C
CN1C(=O)[C@H]2CN(C(=O)c3ncnc4[nH]ccc34)C[C@H]2C1=O = 0 ˚C
Cc1c[nH]c2ncc(C(=O)N(C)c3nnn[nH]3)cc12 = 1.16 ˚C

# next molecule below
DSF max dTma reading for Cc1cc(C(=O)C(C#N)c2nnc3n2CCCCC3)cc(O)n1 (centres unmarked) : 0 ˚C

* * *

Molecular target: SARS-CoV-2 NSP3 Mac1 (Severe acute respiratory syndrome coronavirus 2)
Assay type: binding
Conditions: PanDDA 1-BDC value of the event; crystal soak, compound concentration 100 mM; per dataset
Provide the reported 1-BDC of each item.

As a guide, the following entries are already answered.
CNS(=O)(=O)c1cc(C(=O)N2CCc3nc(N)ncc3C2)co1 = 0.07
O=C(Nc1ccc(C(=O)N2CC(C(=O)O)Cc3ccccc32)cc1)NC1CC1 (stereo not shown) = 0.06
NC(=O)Nc1ccc(C(=O)NC2c3cccc(O)c3CC2C(=O)O)cc1 (stereo not shown) = 0.24

# next molecule below
1-BDC on SARS-CoV-2 NSP3 Mac1 (Severe acute respiratory syndrome coronavirus 2) for O=C(NC1c2cccc(O)c2CC1C(=O)O)c1ccc(Nn2ccnc2)cc1 (stereo not shown) is 0.25

* * *

Target: SARS-CoV-2 NSP3 Mac1 (Severe acute respiratory syndrome coronavirus 2, UniProt P0DTD1)
Assay type: binding
Conditions: ligand occupancy after refinement (phenix.refine); crystal soaking of Mac1
Provide the reported Refined occupancy of each item.
One number for each entry.

As a guide, the following entries are already answered.
O=C(O)c1ccc(F)c(CNC(=O)c2ccc3[nH]ccc3c2)c1 [Compound Z7647] = 18
c1ccc(CNc2ncnc3[nH]ccc23)nc1 [SRH-0028] = 18
O=C(Nc1ccc(C(=O)NC2c3cccc(O)c3CC2C(=O)O)c2scnc12)NC1CC1 (centres unmarked) [Z8539_0065] = 18

Can you give me Refined occupancy for all of these, one by one?
1. CC1CC(C(=O)O)N1C(=O)c1cc(O)nc2ccc(F)cc12.O=C(O)C(F)(F)F (centres unmarked) [REAL300007260658]
2. Cc1c[nH]c2ncc(C(=O)N(C)c3nnn[nH]3)cc12 [R7335]

OUTPUT:
22
40
